# Target of assay: MAL^TIR (Homo sapiens, UniProt P58753)
# Construct: MAL (residues 79–221); 6xHis; made in house; host or cells: E. coli BL21 (DE3)
# Sequence (P58753 79-221): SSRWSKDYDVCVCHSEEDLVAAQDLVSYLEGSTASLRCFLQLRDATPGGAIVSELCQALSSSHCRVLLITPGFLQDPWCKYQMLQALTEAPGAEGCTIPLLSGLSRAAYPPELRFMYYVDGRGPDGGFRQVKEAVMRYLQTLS
# Assay comment: T‐Surf phage library (P8 and P3) selection against MAL^TIR, four rounds, NGS read counts
# Type: binding
# Applied conditions: P8 library, selection against MAL, rank before grouping
# Protocol: T‐Surf libraries were screened against the immobilized TIR domains of two major human TLR adaptor proteins, MAL^TIR and MyD88^TIR, allowing cross‐species selection of TIR‐binding motifs with 190 946 TIR‐derived peptides in a single binding assay (Scheme 1). Enriched phage pools from the fourth round of selection were analyzed using NGS after barcoding the peptide‐coding regions of the phage pools. […]
Hi there, I'd appreciate the recorded P8_MAL Rank (before) for every entry that follows.
Answer field: number only, no words.

Prompt line: May I ask what P8_MAL Rank (before) has been recorded for ALLYPFLINLTHPTHF ?
Response line: 1957

Prompt line: Entry ELLLSVFMTLSAPRTV please
Response line: 2043

Prompt line: Entry DPKLNTGESIAPELLR please
Response line: 1991
